Reported AC50 for target or system UniProtKB P08684, by entry.
Sequence (P08684 whole entry): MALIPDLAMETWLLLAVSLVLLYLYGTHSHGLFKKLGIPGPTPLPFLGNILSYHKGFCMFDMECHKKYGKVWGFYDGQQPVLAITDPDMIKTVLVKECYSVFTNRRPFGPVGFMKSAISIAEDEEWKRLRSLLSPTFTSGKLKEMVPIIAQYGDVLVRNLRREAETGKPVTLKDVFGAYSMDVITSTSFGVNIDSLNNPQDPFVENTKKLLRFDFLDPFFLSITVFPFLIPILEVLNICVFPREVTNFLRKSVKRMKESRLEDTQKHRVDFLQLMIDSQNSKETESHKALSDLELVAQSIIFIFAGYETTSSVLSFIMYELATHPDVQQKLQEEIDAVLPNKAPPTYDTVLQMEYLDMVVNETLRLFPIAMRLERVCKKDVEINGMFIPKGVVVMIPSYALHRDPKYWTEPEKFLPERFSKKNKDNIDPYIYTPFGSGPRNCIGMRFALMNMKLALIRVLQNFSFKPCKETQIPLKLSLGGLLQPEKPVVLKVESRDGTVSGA

Answered cases to consult:
N[C@@H](Cn1oc(=O)[nH]c1=O)C(=O)O [QUISQUALATE]	1 µM (inconclusive)
Fc1ccc(CSc2nnc(-c3cc4c(s3)-c3ccccc3CC4)o2)cc1	15.8 µM (inconclusive)
CCn1c(C)cc(/C=C2\SC(=O)N(CC(=O)Nc3ccc(C)c(C)c3)C2=O)c1C	1 µM (inconclusive)
C/C(=N\NC(=O)C1CC1c1ccccc1)c1cccs1 (stereo not given)	8.91 µM (inconclusive)

Exam item: I have this compound here, COc1ccccc1-c1nc(N2CCN(C)CC2)c2ccccc2n1 , and I need its recorded AC50.
Marked response: 31.6 µM (inconclusive)

Exam item: And what about the compound CCC12CN3CC(CC)(CN(C1)C3c1cccnc1)C2=O (stereo not given) ?
Marked response: 4.47 µM (inconclusive)

Exam item: And what about the compound Cc1nn(C(=O)c2ccco2)c(C)c1Sc1ccccc1 ?
Marked response: 39.8 µM (inconclusive)

Exam item: And what about the compound COc1ncc2nc(-c3cn(C)c4ccccc34)c(=O)n(-c3ccccc3)c2n1 ?
Marked response: 3.16 µM (inconclusive)

Exam item: And what about the compound C=CCN(CC=C)CC(O)Cn1c2ccccc2c2ccccc21 (stereo not given) ?
Marked response: 28.2 µM (inconclusive)

Exam item: And what about the compound COc1ccc(-c2nc3cnc(OC)nc3n(C3CC3)c2=O)cc1 ?
Marked response: 0.0501 µM (inconclusive)

Exam item: And what about the compound COc1ccccc1CN1CCCC2(CCN(C(=O)c3cccn3C)CC2)C1 ?
Marked response: 20 µM (inconclusive)

Exam item: And what about the compound Cc1cc(NC(=O)CCC(=O)N(CC2CCCO2)C(C(=O)NC2CCCC2)c2cccnc2)no1 (stereo not given) ?
Marked response: 1.41 µM (inconclusive)

Exam item: And what about the compound CN1CCN(c2nc(-c3ccoc3)nc3ccccc23)CC1 ?
Marked response: 20 µM (inconclusive)

Exam item: And what about the compound COc1ccc(-n2c(=O)c(CCc3ccccc3)nc3cnc(N(C)C)nc32)cc1 ?
Marked response: 3.16 µM (inconclusive)

Exam item: And what about the compound Cc1noc(C)c1-c1nc(N(C)C)c2ccccc2n1 ?
Marked response: 15.8 µM (inconclusive)

* * *

# TARGET_OR_SYSTEM: Eukaryotic translation initiation factor 4E (Mus musculus, UniProt P63073)
# Sequence (P63073 whole entry): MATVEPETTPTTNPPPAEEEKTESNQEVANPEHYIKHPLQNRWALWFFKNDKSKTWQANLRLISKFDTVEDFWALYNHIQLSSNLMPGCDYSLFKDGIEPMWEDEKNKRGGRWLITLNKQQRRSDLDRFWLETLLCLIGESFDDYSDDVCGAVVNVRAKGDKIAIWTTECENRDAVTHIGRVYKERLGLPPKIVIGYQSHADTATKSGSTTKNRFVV
# EXPERIMENTAL_PROTOCOL: blockers of eIF4G binding by eIF4E – biochemical, TR-FRET, dose response (AID 855);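 also: potency for disrupting eIF4E binding to eIF4GI seen as loss of FRET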
# Assay type: functional
Activity calls are given as the source filed them.
Recorded IC50 for the following compounds

Answered cases to consult:
COCCNC(=O)Nc1ccc2nc(-c3ccco3)c(-c3ccco3)nc2c1	50 µM (inactive)
CSc1ccc(/C=N/Nc2cccc(C(=O)O)c2)cc1	50 µM (inactive)
COC(=O)c1ccccc1NC(=O)COC(=O)c1ccc(C)c(NC(=O)c2ccco2)c1	> 64 µM (inactive)
COc1cc(/C=C(\C#N)C(=O)N2CCc3ccccc32)ccc1O	50 µM (inactive)

Exam item: I have this compound here, CCN(CC)S(=O)(=O)c1cc(F)ccc1OC , and I need its recorded IC50.
Marked response: > 64 µM (inactive)

* * *

# TARGET_OR_SYSTEM: Corticotropin-releasing factor receptor 2/Corticotropin-releasing factor-binding protein (Homo sapiens, UniProt P24387+Q13324)
# Sequence (Q13324 whole entry): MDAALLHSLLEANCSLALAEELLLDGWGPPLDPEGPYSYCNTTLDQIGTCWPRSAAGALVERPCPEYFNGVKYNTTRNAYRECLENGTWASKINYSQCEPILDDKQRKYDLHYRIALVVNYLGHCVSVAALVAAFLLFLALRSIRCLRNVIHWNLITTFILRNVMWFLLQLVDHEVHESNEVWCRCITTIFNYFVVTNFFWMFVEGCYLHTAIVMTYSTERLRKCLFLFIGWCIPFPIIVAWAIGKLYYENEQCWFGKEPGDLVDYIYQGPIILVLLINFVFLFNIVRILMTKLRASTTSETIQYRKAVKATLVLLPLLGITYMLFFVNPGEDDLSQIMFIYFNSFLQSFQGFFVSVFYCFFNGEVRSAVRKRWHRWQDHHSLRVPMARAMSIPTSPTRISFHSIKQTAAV
# Sequence (P24387 whole entry): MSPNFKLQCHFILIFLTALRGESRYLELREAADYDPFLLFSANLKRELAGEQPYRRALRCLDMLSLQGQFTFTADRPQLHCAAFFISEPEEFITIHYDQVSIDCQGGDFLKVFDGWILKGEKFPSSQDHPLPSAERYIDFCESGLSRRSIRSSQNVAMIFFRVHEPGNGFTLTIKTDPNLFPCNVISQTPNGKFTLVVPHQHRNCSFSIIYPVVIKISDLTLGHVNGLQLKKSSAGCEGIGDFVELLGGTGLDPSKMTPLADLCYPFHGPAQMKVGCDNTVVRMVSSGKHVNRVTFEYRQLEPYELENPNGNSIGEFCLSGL
# EXPERIMENTAL_PROTOCOL: Dose Response confirmation of uHTS hits for small molecule antagonists of the CRF-binding protein and CRF-R2 receptor complex.
# Format: functional
# RUN_PARAMETERS: read-out: IC50_Mean
The source made the active and inactive calls.
Pick from active, inactive when you respond.

Exam item: What did the test return for CC1=C(c2ccccc2)C(O)(c2ccccc2)C(C)C1=O (stereo unspecified) ?
Marked response: active

Exam item: And what about the compound COCCNc1nc2c(S(=O)(=O)c3cc(C)ccc3C)nnn2c2ccccc12 ?
Marked response: active

Exam item: And what about the compound CN(CCO)S(=O)(=O)c1ccc2c(c1)C(=NNC(N)=O)c1cc(S(=O)(=O)N(C)CCO)ccc1-2 ?
Marked response: inactive

Exam item: And what about the compound CCc1ccccc1N1C(=O)C2CC(C)=C(C)CC2C1=O (stereo unspecified) ?
Marked response: inactive

Exam item: And what about the compound O=C(CSc1nnc(C2COc3ccccc3O2)o1)NC1CCCCC1 (stereo unspecified) ?
Marked response: inactive

Exam item: And what about the compound NC(Cc1ccc(O)cc1)C(=O)NN=Cc1ccc(N(CCCl)CCCl)cc1 (stereo unspecified) ?
Marked response: inactive

Exam item: And what about the compound S=C(NCc1ccccc1)Nc1ccc(Cl)cc1 ?
Marked response: inactive

Exam item: And what about the compound O=[N+]([O-])c1ccc(NS(=O)(=O)c2ccccc2)c(Cl)c1 ?
Marked response: active

Exam item: And what about the compound O=C(Nc1nc2ccc(S(=O)(=O)N3CCCC3)cc2s1)c1ccccn1 ?
Marked response: active

Exam item: And what about the compound COc1cc(OC)cc(C(=O)NCC(=O)OCc2cc(=O)oc3cc(OC)ccc23)c1 ?
Marked response: inactive

Exam item: And what about the compound COc1ccc(OC)c(NC(=O)c2[nH]c(C)c(C(C)=O)c2C)c1 ?
Marked response: inactive
